Source: the supplement of paper PMC7125110

Each record here notes measured self-cleavage kobs at 160 uM GlcN6P.
B1: glmS ribozyme (parent)
chain: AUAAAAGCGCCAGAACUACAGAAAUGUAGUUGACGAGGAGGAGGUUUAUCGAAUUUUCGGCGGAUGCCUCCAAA

- Variants of: B1
- Method: self-cleavage kobs at 160 uM GlcN6P; higher = faster cleavage; RNA array
- Experimental Context: with glucosamine-6-phosphate
Fewer inactive variants are shown than the library holds.

- Residue String: "AUAAAAGCGGCAGAACUACAGAAAUGUAGUUGAUGAGGAGGAGGUUUAUCGAAUUUUCGGCGGAUGCCUCCAAA [C10G C34U]"
  Relation Operator: "<"
  self-cleavage kobs at 160 uM GlcN6P (s⁻¹): "1e-05"
- Residue String: "AUAAAAGCGCCAGAACUACAGAAAUGUAAUUGACGAGGAGGAGGUUUAUCGAAUUUUCGGCGGAUGCCUCUAAA [G29A C71U]"
  Relation Operator: "="
  self-cleavage kobs at 160 uM GlcN6P (s⁻¹): 0.000261
- Residue String: "AUAAAAGCGCCAGAACUACAGAAAUGUACUUGACGAGGAGGAGGUUAAUCGAAUUUUCGGCGGAUGCCUCCAAA [G29C U47A]"
  Relation Operator: "="
  self-cleavage kobs at 160 uM GlcN6P (s⁻¹): "7.89e-05"
- Residue String: "AUAAAAGCGCCAGAAGUACAGAAAUGUAGUUGACGAGGAGGAGGUUUAUCGAAUUUUCGGCUGAUGCCUCCAAA [C16G G62U]"
  Relation Operator: "<"
  self-cleavage kobs at 160 uM GlcN6P (s⁻¹): "1e-05"
- Residue String: "AUAAAAGCGCCGGAACUACAGAAAUGUAGUUGACGAGGAGGAGGUUUAUCGAAUUAUCGGCGGAUGCCUCCAAA [A12G U56A]"
  Relation Operator: "="
  self-cleavage kobs at 160 uM GlcN6P (s⁻¹): "4.26e-05"
- Residue String: "AUAAAAGCGCCAGAACUACAGAAAUGUAGUUGACGAGGUGGAGGUUUAUCGAAUUUUCGGCGGAUUCCUCCAAA [A39U G66U]"
  Relation Operator: "="
  self-cleavage kobs at 160 uM GlcN6P (s⁻¹): 0.000292
- Residue String: "AUAAAAGCGCCAGAACUACAGAAAUGUAUUUGACGAGGAGGAGGUUUAUCGAAUUUUCGGCGGAUGCCUUCAAA [G29U C70U]"
  Relation Operator: "="
  self-cleavage kobs at 160 uM GlcN6P (s⁻¹): 0.000273
- Residue String: "AUAAAAGUGCCAGAACUACAGAAAUGUAGUUGCCGAGGAGGAGGUUUAUCGAAUUUUCGGCGGAUGCCUCCAAA [C8U A33C]"
  Relation Operator: "<"
  self-cleavage kobs at 160 uM GlcN6P (s⁻¹): "1e-05"
- Residue String: "AUAAAAGCGCCAGAACUACAGAAAUGUAGUUGACGAGGAGGAGCUUUAUCGAAUUUUUGGCGGAUGCCUCCAAA [G44C C58U]"
  Relation Operator: "<"
  self-cleavage kobs at 160 uM GlcN6P (s⁻¹): "1e-05"
- Residue String: "AUAAAAGCGCGAGAACUACAGAAAUGUAGUGGACGAGGAGGAGAUUUAUCGAAUUUUCGGCGGACGCCUCCAAA [C11G U31G G44A U65C]"
  Relation Operator: "<"
  self-cleavage kobs at 160 uM GlcN6P (s⁻¹): "1e-05"
- Residue String: "AUAAAAGCGCCAGAACUACAGAAAUGUAGUUGACGAGGAGGAGCUUUAUCGAAUUUUCGGCGGACGCCUCCAAA [G44C U65C]"
  Relation Operator: "<"
  self-cleavage kobs at 160 uM GlcN6P (s⁻¹): "1e-05"
